Sourced from the supplement of paper PMC9732359

# protocol: protein stability index of a GFP-peptide fusion (yeast GPS) (PSI 1-4); higher = more stable; sorted into four equal gates, so the index is relative within each strain
# reported_conditions: san1∆
Each record's class is read off its protein stability index using these ranges: low-valued = under 2, mid-valued = from 2 up to 3, high-valued = 3 and over

Recorded results for 6 sequences are shown here.
IVNVLSKCLNLISDSNI [SWI3] :: low-valued
EVRAISVAKIRFPETMD [RPO21] :: mid-valued
VQLKDANSQIQAYEEII [YIL149C/MLP2] :: high-valued
GRPETYIWRYLPAPPVC [RPO31] :: low-valued
LQMRLKESEISHNENKM [YIL149C/MLP2] :: high-valued
IPNRRFTLWWSPTINRA [PRP8] :: low-valued

Consider QVIVDIFSVHGNTVVDG [YCG1] . To which protein stability index class does it belong?
low-valued

Category of TTVSNDLENSPLKTELE [SSN2] :
high-valued

----------
# protocol: protein stability index of a GFP-peptide fusion (yeast GPS) (PSI 1-4); higher = more stable; sorted into four equal gates, so the index is relative within each strain
# reported_conditions: doa10∆
Decision: protein stability index compared against 3; not below it gives MET, below it gives NOT MET.

Form field: protein stability index at least 3? Entry: FKKSKIDHINEESWEKV [SCL1]
NOT MET

Does the sequence LFGQSQQPQTNTAPGLG [YGR119C/NUP57] have recorded protein stability index that is 3 or more?
NOT MET

Does protein stability index meet or surpass 3 for QSQLNVTLSQLVSVTST [MED8] ?
NOT MET

----------
// reported protein stability index for each item listed
# protocol: protein stability index of a GFP-peptide fusion (yeast GPS) (PSI 1-4); higher = more stable; sorted into four equal gates, so the index is relative within each strain
# reported_conditions: san1∆
Answer with the value's number alone.

LKFMAASEVATHSKLFA [PRP8] :: 2.78
AGDWKYDRQLSSLFLDG [FAS2] :: 2.34
CEINYYEILLKILITYG [SRB8] :: 1.17

Sure, the documented protein stability index for VTLKGAKALESLASCLR [POP1] is 2.54

For this sequence ( QVSEVDPGRYNKVCRIE [RPB8] ), measured protein stability index is 2.65

The value of protein stability index measured for the sequence FKAEKLQIVNQLPANMV [RPC17] turned out to be 3.03

Input QGKHTKFENDELAESTT [LRP1] . Output protein stability index: 3.12

The recorded protein stability index for entry SVVRVLVHTQIRKTPLA [RPL3] equals 1.11

Reported protein stability index for DDFMHSETREKELESID [RPB4] was 2.74

Notebook: SGTPITQTESKKEENET [SNF2] , protein stability index read as 2.94

The sequence listed as HVLKKNPLKNKQVLLRL [RPL4A] shows protein stability index equal to 1.3

Value of protein stability index reported for the sequence KRTRLESLKNLNESRSQ [SMC3] is 2.61

# protein stability index of NANAGLFNKPPSTNAQN [YOR098C/NUP1] = 3.06

----------
Overview of reported protein stability index across a group of sequences:
# protocol: protein stability index of a GFP-peptide fusion (yeast GPS) (PSI 1-4); higher = more stable; sorted into four equal gates, so the index is relative within each strain
# reported_conditions: san1∆
Hey, just send me the number, nothing else.

These recorded examples may help you get a feel for the data.
LQNSERDVELSSDELKV [SMC4] :: 2.73
HKSDVMSVDIDKKASMI [ASC1] :: 2.48
VAATITSSQKEPFFLVT [SRB8] :: 2.12
ATEPQMVLFNIYDDWLD [PRP8] :: 1.6
SETDKRQFLHELRRPGV [RPO31] :: 1.57

For reference, reported protein stability index for DDINKAKAVWENIIIVG [ARP9] stands at 1.67

The sequence KAPEAEQVLSAAATFPI [RPL13A] showed protein stability index equal to 2.96

What the record says about HPPFIKYACLAIRKNGQ [SIN4] : protein stability index is 1.68
